target: Breast cancer type 1 susceptibility protein (Homo sapiens) (UniProt P38398); assay: qHTS Assay for Inhibitors of BRCT-Phosphoprotein Interaction (Red Fluorophore); conditions: BRCT-phosphopeptide binding, red fluorescence polarization; series mostly up to 76.9 µM; further: on the % scale 0 is the no-effect control and ±100 the full control effect
Sequence (P38398 whole entry, looked up): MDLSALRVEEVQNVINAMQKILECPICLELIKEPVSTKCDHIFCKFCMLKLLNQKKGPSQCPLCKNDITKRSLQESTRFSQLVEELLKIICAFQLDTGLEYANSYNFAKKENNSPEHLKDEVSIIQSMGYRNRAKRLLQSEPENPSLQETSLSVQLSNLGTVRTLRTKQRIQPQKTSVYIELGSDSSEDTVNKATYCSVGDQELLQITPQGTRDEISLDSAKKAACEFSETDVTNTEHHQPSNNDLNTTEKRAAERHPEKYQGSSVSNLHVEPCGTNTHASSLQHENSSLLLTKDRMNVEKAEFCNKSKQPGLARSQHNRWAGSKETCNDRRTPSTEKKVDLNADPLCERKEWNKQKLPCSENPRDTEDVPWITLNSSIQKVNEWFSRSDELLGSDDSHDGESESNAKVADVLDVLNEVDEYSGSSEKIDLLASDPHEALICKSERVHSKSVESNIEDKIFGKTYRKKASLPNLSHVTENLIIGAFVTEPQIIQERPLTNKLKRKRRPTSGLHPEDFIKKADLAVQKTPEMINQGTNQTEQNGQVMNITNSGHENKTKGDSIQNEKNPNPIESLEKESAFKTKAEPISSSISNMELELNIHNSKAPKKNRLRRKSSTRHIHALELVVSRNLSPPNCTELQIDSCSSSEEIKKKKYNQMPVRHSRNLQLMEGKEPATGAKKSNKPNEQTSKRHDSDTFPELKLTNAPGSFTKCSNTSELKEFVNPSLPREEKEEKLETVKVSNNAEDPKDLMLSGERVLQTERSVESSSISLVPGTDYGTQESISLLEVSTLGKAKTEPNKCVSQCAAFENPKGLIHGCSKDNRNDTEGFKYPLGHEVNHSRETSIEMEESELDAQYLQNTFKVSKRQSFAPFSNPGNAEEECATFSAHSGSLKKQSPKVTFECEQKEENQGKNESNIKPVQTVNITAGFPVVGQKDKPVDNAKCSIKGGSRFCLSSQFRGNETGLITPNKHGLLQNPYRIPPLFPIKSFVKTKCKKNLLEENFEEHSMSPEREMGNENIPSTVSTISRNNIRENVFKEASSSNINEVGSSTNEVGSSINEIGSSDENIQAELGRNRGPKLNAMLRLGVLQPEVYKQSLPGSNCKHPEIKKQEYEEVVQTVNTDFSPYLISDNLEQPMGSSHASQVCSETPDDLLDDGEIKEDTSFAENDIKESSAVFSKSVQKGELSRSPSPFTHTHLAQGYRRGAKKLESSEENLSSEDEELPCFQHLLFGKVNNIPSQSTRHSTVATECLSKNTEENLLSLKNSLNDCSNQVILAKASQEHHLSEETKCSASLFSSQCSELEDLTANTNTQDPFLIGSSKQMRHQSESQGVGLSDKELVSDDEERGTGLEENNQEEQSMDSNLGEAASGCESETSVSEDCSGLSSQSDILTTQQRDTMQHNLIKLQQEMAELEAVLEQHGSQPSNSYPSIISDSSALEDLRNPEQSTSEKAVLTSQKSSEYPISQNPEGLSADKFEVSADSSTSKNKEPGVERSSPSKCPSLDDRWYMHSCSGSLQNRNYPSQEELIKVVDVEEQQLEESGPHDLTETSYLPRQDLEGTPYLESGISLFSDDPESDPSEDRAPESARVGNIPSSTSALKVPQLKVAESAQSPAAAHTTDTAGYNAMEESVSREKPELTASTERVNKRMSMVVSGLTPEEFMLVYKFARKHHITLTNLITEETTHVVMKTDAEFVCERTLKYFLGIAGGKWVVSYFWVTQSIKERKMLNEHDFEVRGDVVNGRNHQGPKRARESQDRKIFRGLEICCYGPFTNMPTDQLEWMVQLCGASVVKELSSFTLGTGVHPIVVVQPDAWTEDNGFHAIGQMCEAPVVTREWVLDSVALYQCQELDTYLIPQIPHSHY
About 20 (0.03%) of roughly 75,000 compounds were called active. These entries were drawn from the full list.
MEASURED PROPERTY: activity change, negative = inhibition

1. CCOc1ccccc1NC(=O)c1cc(S(=O)(=O)N2CCC3(CC2)OCCO3)ccc1F :: inactive
2. CO[C@H]1COC(=O)[C@@H](OCc2ccccc2)/C=C\[C@H](C)[C@@H](OC)COC(=O)[C@H](OCc2ccccc2)/C=C\[C@@H]1C :: 3% [at 15.4 µM] (inactive)
3. COc1cc(C(=O)N(Cc2ccc(N(C)C)cc2)C2CCS(=O)(=O)C2)cc(OC)c1OC (centres undefined) :: inactive
4. CC(=O)Nc1ccc(S(=O)(=O)N2CCN(CCCOc3cc(C)ccc3C)CC2)cc1 :: inactive

src = PubChem BioAssay AID892
